Test system: MCF-7 (hormone receptor/HR-positive breast cancer cells)
Protocol text: MTT cell viability assay in MCF-7 cells
Format: cell-based
Cond: Homo sapiens, MCF7, 72 h, concentrations 10 µM, 25 µM and 50 μM in Fig. 10, read-out: IC50 against MCF-7 breast cancer cells line
Outcome measure: IC50 (µM)

Example entries begin here.
1. CC(=O)OC[C@H]1O[C@@H](n2cc(COc3cc(-c4ccc(Cl)cc4)nc4ccnn34)nn2)[C@H](OC(C)=O)[C@@H](OC(C)=O)[C@@H]1OC(C)=O: 15.3
2. CC(=O)OC[C@H]1O[C@H](n2cc(COc3cc(-c4ccc(C(C)C)cc4)nc4ccnn34)nn2)[C@@H](OC(C)=O)[C@@H](OC(C)=O)[C@@H]1OC(C)=O [Compound 11g]: 18.3
3. CC(=O)OC[C@H]1O[C@@H](n2cc(COc3cc(-c4ccc(C)cc4)nc4ccnn34)nn2)[C@H](OC(C)=O)[C@@H](OC(C)=O)[C@@H]1OC(C)=O: 35.4

1. CC(=O)OC[C@H]1O[C@@H](n2cc(COc3cc(-c4ccc5ccccc5c4)nc4ccnn34)nn2)[C@H](OC(C)=O)[C@@H](OC(C)=O)[C@@H]1OC(C)=O
2. CC(=O)OC[C@H]1O[C@@H](n2cc(COc3cc(-c4ccc(C(F)(F)F)cc4)nc4ccnn34)nn2)[C@H](OC(C)=O)[C@@H](OC(C)=O)[C@H]1OC(C)=O [Compound 10f]
Q: Could you determine which record has the numerically smaller IC50? Candidates: 1 and 2 Provide the label of your selected option as the answer.
Ans: 1

###

Some molecules, each annotated with its measured viability at 10 µM.
Tested on: MCF-7 (hormone receptor/HR-positive breast cancer cells)
Protocol text: MTT cell viability assay in MCF-7 cells
Format: cell-based
Cond: Homo sapiens, MCF7; MCF-7, 10 µM; read-out: Cell viability (%) ± SD
# output: bare number, implied unit %

Example entries begin here.
1. CC(=O)OC[C@H]1O[C@@H](n2cc(COc3cc(-c4ccc(C(F)(F)F)cc4)nc4ccnn34)nn2)[C@H](OC(C)=O)[C@@H](OC(C)=O)[C@H]1OC(C)=O [Compound 10f]: 28.4
2. CC(=O)OC[C@H]1O[C@H](n2cc(COc3cc(-c4ccc(C(C)C)cc4)nc4ccnn34)nn2)[C@@H](OC(C)=O)[C@@H](OC(C)=O)[C@@H]1OC(C)=O [Compound 11g]: 68.2
3. CC(=O)OC[C@H]1O[C@@H](n2cc(COc3cc(-c4ccc(C)cc4)nc4ccnn34)nn2)[C@H](OC(C)=O)[C@@H](OC(C)=O)[C@@H]1OC(C)=O: 41.3
4. CC(=O)OC[C@H]1O[C@@H](n2cc(COc3cc(-c4ccc(Cl)cc4)nc4ccnn34)nn2)[C@H](OC(C)=O)[C@@H](OC(C)=O)[C@H]1OC(C)=O [Compound 10d]: 34
5. CC(=O)OC[C@H]1O[C@@H](n2cc(COc3cc(-c4ccc(Cl)cc4)nc4ccnn34)nn2)[C@H](OC(C)=O)[C@@H](OC(C)=O)[C@@H]1OC(C)=O: 69.8

Let us examine a further case.
Q: Please tell me the measured viability at 10 µM for CC(=O)OC[C@H]1O[C@@H](n2cc(COc3cc(-c4ccc5ccccc5c4)nc4ccnn34)nn2)[C@H](OC(C)=O)[C@@H](OC(C)=O)[C@@H]1OC(C)=O ; system: MCF-7 (hormone receptor/HR-positive breast cancer cells).
Ans: 58.7

###

Tested on: MDA-MB-231 (human breast cancer) cell line
Protocol text: MTT cell viability assay in MDA-MB-231 cells
Type: cell-based
Cond: Table 2, MDA-MB-231, MTT, 72 h, 25 µM, read-out: Cell viability (%) ± SD
Some compounds, each annotated with its measured viability at 25 µM.
# output: bare number, implied unit %

Example entries begin here.
1) CC(=O)OC[C@H]1O[C@@H](n2cc(COc3cc(-c4ccc(C(C)C)cc4)nc4ccnn34)nn2)[C@H](OC(C)=O)[C@@H](OC(C)=O)[C@H]1OC(C)=O [Compound 10g]: 79.5
2) CC(=O)OC[C@H]1O[C@@H](n2cc(COc3cc(-c4ccc(C)cc4)nc4ccnn34)nn2)[C@H](OC(C)=O)[C@@H](OC(C)=O)[C@@H]1OC(C)=O: 51
3) CC(=O)OC[C@H]1O[C@H](n2cc(COc3cc(-c4ccc(C)cc4)nc4ccnn34)nn2)[C@@H](OC(C)=O)[C@@H](OC(C)=O)[C@@H]1OC(C)=O [Compound 11a]: 91.8
4) CC(=O)OC[C@H]1O[C@@H](n2cc(COc3cc(-c4ccc(Cl)cc4)nc4ccnn34)nn2)[C@H](OC(C)=O)[C@@H](OC(C)=O)[C@@H]1OC(C)=O: 61
5) CC(=O)OC[C@H]1O[C@@H](n2cc(COc3cc(-c4ccc5c(c4)OCO5)nc4ccnn34)nn2)[C@H](OC(C)=O)[C@@H](OC(C)=O)[C@H]1OC(C)=O [Compound 10i]: 99.2

Q: Identify measured viability at 25 µM corresponding to CC(=O)OC[C@H]1O[C@@H](n2cc(COc3cc(-c4ccc(C(F)(F)F)cc4)nc4ccnn34)nn2)[C@H](OC(C)=O)[C@@H](OC(C)=O)[C@@H]1OC(C)=O
Ans: 88.8

Q: Identify measured viability at 25 µM corresponding to CC(=O)OC[C@H]1O[C@H](n2cc(COc3cc(-c4ccc(F)cc4)nc4ccnn34)nn2)[C@@H](OC(C)=O)[C@@H](OC(C)=O)[C@@H]1OC(C)=O [Compound 11e]
Ans: 90.1

###

Some compounds, each annotated with its measured viability at 72 h, 50 µM.
Protocol text: MTT cell viability assay in normal MCF-10A cells
Assay type: cell-based
Cond: human, MCF-10A normal mammary epithelial cells; MCF-10A normal cells, 50 µM; read-out: Cell viability (%) ± SD
# output: bare number, implied unit %

Example entries begin here.
1. CC(=O)OC[C@H]1O[C@@H](n2cc(COc3cc(-c4ccc(C(F)(F)F)cc4)nc4ccnn34)nn2)[C@H](OC(C)=O)[C@@H](OC(C)=O)[C@H]1OC(C)=O [Compound 10f]: 88.1
2. CC(=O)OC[C@H]1O[C@H](n2cc(COc3cc(-c4ccc(C(C)C)cc4)nc4ccnn34)nn2)[C@@H](OC(C)=O)[C@@H](OC(C)=O)[C@@H]1OC(C)=O [Compound 11g]: 84.2
3. CC(=O)OC[C@H]1O[C@@H](n2cc(COc3cc(-c4ccc(C)cc4)nc4ccnn34)nn2)[C@H](OC(C)=O)[C@@H](OC(C)=O)[C@@H]1OC(C)=O: 84.3
4. CC(=O)OC[C@H]1O[C@@H](n2cc(COc3cc(-c4ccc(Cl)cc4)nc4ccnn34)nn2)[C@H](OC(C)=O)[C@@H](OC(C)=O)[C@@H]1OC(C)=O: 85.6
5. CC(=O)OC[C@H]1O[C@@H](n2cc(COc3cc(-c4ccc(Cl)cc4)nc4ccnn34)nn2)[C@H](OC(C)=O)[C@@H](OC(C)=O)[C@H]1OC(C)=O [Compound 10d]: 85.6

Q: Identify measured viability at 72 h, 50 µM corresponding to CC(=O)OC[C@H]1O[C@@H](n2cc(COc3cc(-c4ccc5ccccc5c4)nc4ccnn34)nn2)[C@H](OC(C)=O)[C@@H](OC(C)=O)[C@@H]1OC(C)=O
Ans: 88.8

###

Some compounds, each annotated with its measured viability at 25 µM.
Test system: MDA-MB-231 (human breast cancer) cell line
Protocol text: MTT cell viability assay in MDA-MB-231 cells
Type: cell-based
Cond: Table 2, MDA-MB-231, MTT, 72 h, 25 µM, read-out: Cell viability (%) ± SD
# output: bare number, implied unit %

1) CC(=O)OC[C@H]1O[C@@H](n2cc(COc3cc(-c4ccc(Br)cc4)nc4ccnn34)nn2)[C@H](OC(C)=O)[C@@H](OC(C)=O)[C@@H]1OC(C)=O [Compound 9c]: 100
2) CC(=O)OC[C@H]1O[C@@H](n2cc(COc3cc(-c4ccc(Cl)cc4)nc4ccnn34)nn2)[C@H](OC(C)=O)[C@@H](OC(C)=O)[C@H]1OC(C)=O [Compound 10d]: 53.3
3) CC(=O)OC[C@H]1O[C@@H](n2cc(COc3cc(-c4ccc(C)cc4)nc4ccnn34)nn2)[C@H](OC(C)=O)[C@@H](OC(C)=O)[C@H]1OC(C)=O [Compound 10a]: 78.5
4) CC(=O)OC[C@H]1O[C@H](n2cc(COc3cc(-c4ccc(C(C)C)cc4)nc4ccnn34)nn2)[C@@H](OC(C)=O)[C@@H](OC(C)=O)[C@@H]1OC(C)=O [Compound 11g]: 54.3

Let us examine a further case.
Q: Identify measured viability at 25 µM corresponding to CC(=O)OC[C@H]1O[C@@H](n2cc(COc3cc(-c4ccc5c(c4)OCO5)nc4ccnn34)nn2)[C@H](OC(C)=O)[C@@H](OC(C)=O)[C@@H]1OC(C)=O [Compound 9i]
Ans: 82.5
